target.or.test.system: POLRMT (Homo sapiens, UniProt O00411)
Sequence (O00411 42-1230): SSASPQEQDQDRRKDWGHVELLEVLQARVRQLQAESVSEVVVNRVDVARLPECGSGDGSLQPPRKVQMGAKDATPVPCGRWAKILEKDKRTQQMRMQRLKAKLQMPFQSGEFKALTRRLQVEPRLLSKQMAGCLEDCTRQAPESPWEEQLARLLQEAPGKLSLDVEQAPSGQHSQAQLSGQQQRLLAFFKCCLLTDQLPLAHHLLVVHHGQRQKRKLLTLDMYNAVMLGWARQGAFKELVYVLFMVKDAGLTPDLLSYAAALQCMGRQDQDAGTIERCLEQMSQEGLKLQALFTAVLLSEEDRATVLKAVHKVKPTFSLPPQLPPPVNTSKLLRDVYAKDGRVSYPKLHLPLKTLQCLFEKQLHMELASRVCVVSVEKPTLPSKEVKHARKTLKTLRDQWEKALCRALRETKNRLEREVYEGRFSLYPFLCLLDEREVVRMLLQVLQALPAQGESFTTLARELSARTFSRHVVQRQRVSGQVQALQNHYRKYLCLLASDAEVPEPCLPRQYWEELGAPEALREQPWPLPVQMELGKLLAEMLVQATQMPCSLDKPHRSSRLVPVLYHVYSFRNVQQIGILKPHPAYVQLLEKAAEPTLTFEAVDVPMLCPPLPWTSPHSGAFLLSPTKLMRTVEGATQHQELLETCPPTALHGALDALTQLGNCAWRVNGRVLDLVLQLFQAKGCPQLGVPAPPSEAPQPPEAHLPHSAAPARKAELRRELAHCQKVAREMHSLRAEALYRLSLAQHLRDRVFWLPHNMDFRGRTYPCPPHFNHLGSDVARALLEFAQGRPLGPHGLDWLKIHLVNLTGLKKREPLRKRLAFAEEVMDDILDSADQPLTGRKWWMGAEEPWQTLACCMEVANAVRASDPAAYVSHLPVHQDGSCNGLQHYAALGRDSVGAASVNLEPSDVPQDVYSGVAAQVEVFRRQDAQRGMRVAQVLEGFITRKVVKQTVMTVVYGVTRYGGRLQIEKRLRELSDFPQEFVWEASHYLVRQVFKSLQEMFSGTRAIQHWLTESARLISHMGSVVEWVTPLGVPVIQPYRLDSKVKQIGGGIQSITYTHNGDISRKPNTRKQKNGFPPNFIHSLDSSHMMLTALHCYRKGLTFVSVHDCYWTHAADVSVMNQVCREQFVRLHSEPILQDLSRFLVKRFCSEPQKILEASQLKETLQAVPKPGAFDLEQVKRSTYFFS
method.notes: homogeneous TR-FRET assay of mitochondrial transcription (inhibition of POLRMT)
Format: biochemical
condition.description: isoquinolinone compounds (Table 1)
Please respond with reported pIC50 for every item in the list.
# reply with the number alone; pIC50 is -log10 of concentration in mol/L

Task: Dear colleague, please send me the reported pIC50 for CNC(=O)[C@H](C)Oc1ccc2c(-c3ccccc3C)c[nH]c(=O)c2c1 when you can.
Output: 4.44

Task: Dear colleague, please send me the reported pIC50 for C[C@H](Oc1ccc2c(-c3ccc(F)cc3Cl)c[nH]c(=O)c2c1)C(=O)N1CCC[C@H](C(=O)O)C1 when you can.
Output: 4.60

Task: Dear colleague, please send me the reported pIC50 for Cc1ccccc1-c1c[nH]c(=O)c2cc(OC(C)C#N)ccc12 (single isomer, unassigned) [Example 12] when you can.
Output: 6.70

Task: Dear colleague, please send me the reported pIC50 for Cc1ccccc1-c1c[nH]c(=O)c2cc(O[C@H](C)C(=O)N3C4CCC3COC4)ccc12 when you can.
Output: 7.70

Task: Dear colleague, please send me the reported pIC50 for C[C@@H](Oc1ccc2c(-c3ccc(F)cc3Cl)c[nH]c(=O)c2c1)C(=O)N1CCOCC1 when you can.
Output: 7.30
